Each recorded value in this set is attributed to the RNAGym collection of RNA variant scans (doi:10.7554/elife.80360).

B1: HDV Ribozyme (parent)
chain: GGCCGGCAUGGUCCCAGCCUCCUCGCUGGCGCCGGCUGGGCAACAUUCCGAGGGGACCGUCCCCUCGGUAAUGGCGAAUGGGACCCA

- Variants of: B1
- ASSAY_INFO: self-cleavage, relative activity (ratio to wild type); higher = more cleavage; co-transcriptional
MEASUREMENT_LABEL: self-cleavage
One number for each entry.

Solved cases below.
C13A C58A; 0.155
A43C U60A; 0.249
C24A C75G; 0.0898
C64G C84G; 0.76

I have 4 variants here; please give me self-cleavage for each one.
1. G34U G55U
2. C7G G40U
3. C14G G17A
4. C49G A51C

Result:
[0.105, 0.268, 0.123, 0.623]

I have 8 variants here; please give me self-cleavage for each one.
1. C22U U79G
2. G1U G73C
3. C15U G31U
4. C7U U23G
5. G2C U69G
6. A45U U65G
7. G6A C26U
8. G52C G54C

Result:
0.178
0.231
0.248
0.332
0.157
0.615
0.787
0.564

I have 2 variants here; please give me self-cleavage for each one.
1. G1U C24A
2. G1A U37C

Result:
[0.183, 0.217]

I have 4 variants here; please give me self-cleavage for each one.
1. G55U G80U
2. A8U G67U
3. C18G A78G
4. G34A G74U

Result:
[0.21, 0.898, 0, 0.0875]
